Provenance of the data: PubChem BioAssay (NCI)

System: OVCAR-3 ovarian
Assay: NCI tumour cell line growth inhibition, 48 h; in the data active means GI50 below about 0.43 µM; inactive means the rest
Labels: YES = active, NO = inactive

- compound: "c1ccc(-c2c(-c3ccccc3)[n+](Cc3ccc4ccccc4c3)c(-c3cccc4ccccc34)n2Cc2ccc3ccccc3c2)cc1"
  group_label: "YES"
- compound: "Clc1ccc(CCC(Cn2ccnc2)Sc2c(Cl)cccc2Cl)cc1 (stereo not given)"
  group_label: "NO"
- compound: "COc1ccc(CCn2c3c(c4c(O)cccc42)C(=O)c2ccccc2-3)cc1OC"
  group_label: "NO"
- compound: "COc1ccc(Nc2nccc(Nc3ccc4[nH]ncc4c3)n2)cc1"
  group_label: "NO"
- compound: "NS(=O)(=O)N(c1cc(C(F)(F)F)cc(C(F)(F)F)c1)C1CCN(Cc2ccc(F)cc2)CC1"
  group_label: "NO"
- compound: "CCN1CCC(Oc2c(C#N)ncc3[nH]c4ncccc4c23)CC1"
  group_label: "NO"
- compound: "CC(=O)c1nc2ccccc2n1CCN1CCN(C)CC1"
  group_label: "NO"
- compound: "CC(C)(C)c1ccc(C(=O)Nc2sc3c(c2C#N)CCC(=O)C3)cc1"
  group_label: "NO"
- compound: "Cc1cc(-c2ncc(-c3cccnc3)cc2/C=C/c2ccccc2)cnc1-c1cccnc1"
  group_label: "NO"
- compound: "FC(F)(F)c1ccc(-c2cnc(Cl)nc2NC2CCCCCC2)cc1"
  group_label: "NO"
